Source of measurements: paper PMC3348135

Biological target: Cqui\Orco + Cqui\Or10 (Culex quinquefasciatus, UniProt D5LMR7+Q309I4)
Sequence (D5LMR7 entry or part of it): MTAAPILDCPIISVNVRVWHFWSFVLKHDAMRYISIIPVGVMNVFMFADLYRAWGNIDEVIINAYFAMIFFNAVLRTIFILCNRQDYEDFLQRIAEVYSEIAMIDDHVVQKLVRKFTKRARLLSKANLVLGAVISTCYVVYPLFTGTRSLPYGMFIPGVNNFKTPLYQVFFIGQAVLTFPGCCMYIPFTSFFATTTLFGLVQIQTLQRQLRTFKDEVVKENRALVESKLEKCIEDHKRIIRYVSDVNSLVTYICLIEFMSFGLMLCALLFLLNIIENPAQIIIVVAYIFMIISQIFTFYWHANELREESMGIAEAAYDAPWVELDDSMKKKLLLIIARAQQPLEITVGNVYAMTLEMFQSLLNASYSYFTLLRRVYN
Sequence (Q309I4 entry or part of it): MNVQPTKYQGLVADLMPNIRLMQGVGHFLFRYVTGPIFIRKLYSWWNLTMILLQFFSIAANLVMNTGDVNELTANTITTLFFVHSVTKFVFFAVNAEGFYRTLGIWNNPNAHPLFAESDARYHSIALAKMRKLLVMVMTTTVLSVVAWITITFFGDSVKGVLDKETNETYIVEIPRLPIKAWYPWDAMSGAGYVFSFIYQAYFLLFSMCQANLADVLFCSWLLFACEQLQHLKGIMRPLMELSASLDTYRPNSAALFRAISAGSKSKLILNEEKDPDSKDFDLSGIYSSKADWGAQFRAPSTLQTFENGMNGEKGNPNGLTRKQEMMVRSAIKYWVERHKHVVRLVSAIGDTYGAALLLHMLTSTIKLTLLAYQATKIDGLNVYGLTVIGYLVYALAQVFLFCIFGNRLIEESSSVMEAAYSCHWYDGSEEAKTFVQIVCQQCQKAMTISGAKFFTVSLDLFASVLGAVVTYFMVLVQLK
Experiment: Activation of Cqui\Orco + Cqui\Or10 in Xenopus oocytes, two-electrode voltage clamp
Format: cell-based
Conditions: absence of OLC15; read-out: EC50 for 3-MI activation of Cqui\Orco + Cqui\Or10
OBSERVABLE: pEC50
// field semantics: pEC50 = negative decimal log of concentration (mol/L)

Fill in the blank: the reported pEC50 of Cc1c[nH]c2ccccc12 [3-methylindole, reference compound] is ____.
6.50

====

Biological target: Dmel\Orco (Drosophila melanogaster)
Construct: expressed in transfected cells; host or cells: Xenopus laevis oocytes (cRNA injection, pGEMHE)
Sequence (Q9VNB5 1-486): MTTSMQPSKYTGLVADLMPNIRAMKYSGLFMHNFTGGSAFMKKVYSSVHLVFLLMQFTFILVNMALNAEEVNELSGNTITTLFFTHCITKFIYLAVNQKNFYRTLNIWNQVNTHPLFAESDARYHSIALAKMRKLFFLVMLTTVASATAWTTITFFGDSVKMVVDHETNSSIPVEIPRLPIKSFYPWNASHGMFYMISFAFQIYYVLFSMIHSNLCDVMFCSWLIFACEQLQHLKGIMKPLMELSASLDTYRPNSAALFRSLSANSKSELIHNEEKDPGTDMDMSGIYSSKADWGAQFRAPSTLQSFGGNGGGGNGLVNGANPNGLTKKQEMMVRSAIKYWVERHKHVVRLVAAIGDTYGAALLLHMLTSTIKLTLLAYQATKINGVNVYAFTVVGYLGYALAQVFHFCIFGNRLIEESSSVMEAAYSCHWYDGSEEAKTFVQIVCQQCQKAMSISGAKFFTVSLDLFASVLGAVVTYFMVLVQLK
Assay: Agonist activation of homomeric Dmel\Orco in Xenopus oocytes, two-electrode voltage clamp
Format: cell-based
Settings: read-out: Response amplitude as percentage of response to 100 µM OLC3, Dmel\Orco
OBSERVABLE: Emax at 100 µM (%)
Your answer is read as %, so omit the unit and give the number.

Guide cases for Emax at 100 µM, answers given:
CCn1c(SCC(=O)Nc2ccc(C(C)C)cc2)nnc1-c1ccncc1 : 318
CCn1c(SCC(=O)Nc2ccc(N(C)C)cc2)nnc1-c1ccncc1 : 0
CCc1ccc(NC(=O)CSc2nnc(-c3ccncc3)n2CC)cc1 : 100
CCc1ccc(NC(=O)CSc2nnc(-c3ccccn3)n2CC)cc1 : 0
CCc1ccc(NC(=O)c2cccs2)cc1 : 0

Fill in the blank: the reported Emax at 100 µM of `CCCCc1ccc(NC(=O)CSc2nnc(-c3ccccn3)n2CC)cc1` is ____.
0

And then `CCCCc1ccc(NC(=O)CSc2nnc(-c3cccnc3)n2CC)cc1` , what is it?
0

And then `CCCCc1ccc(NC(=O)c2cccs2)cc1` , what is it?
0

And then CCc1ccc(NC(=O)CSc2nnc(-c3cccnc3)n2CC)cc1 [VUAA1, reference compound] , what is it?
24

====

Target: Cqui\Orco + Cqui\Or10 (Culex quinquefasciatus, UniProt D5LMR7+Q309I4)
Assay: Inhibition of odorant (3-methylindole) activation of Cqui\Orco + Cqui\Or10 in Xenopus oocytes
Type: cell-based
Conditions: activated by 10 nM 3-methylindole (EC10); read-out: IC50 for inhibition of responses to 10 nM 3-MI
OBSERVABLE: IC50 (nM)
Your answer is read as nM, so omit the unit and give the number.

Fill in the blank: the reported IC50 of CCCCc1ccc(NC(=O)CSc2nnc(-c3ccccn3)n2CC)cc1 [OLC15] is ____.
1500

====

Target: Dmel\Orco + Dmel\Or35a (Drosophila melanogaster)
Construct: expressed in transfected cells; host or cells: Xenopus laevis oocytes (cRNA injection, pGEMHE)
Assay: Agonist activation of Dmel\Orco + Dmel\Or35a in Xenopus oocytes, two-electrode voltage clamp
Format: cell-based
Conditions: read-out: Response amplitude as percentage of response to 100 µM OLC3, Dmel\Orco + Dmel\Or35a
OBSERVABLE: Emax at 100 µM (%)
Your answer is read as %, so omit the unit and give the number.

Guide cases for Emax at 100 µM, answers given:
CCc1ccc(NC(=O)CSc2nnc(-c3ccncc3)n2CC)cc1 [OLC3] : 100
CCc1ccc(NC(=O)CSc2nnc(-c3cccnc3)n2CC)cc1 [VUAA1, reference compound] : 50
CCCCc1ccc(NC(=O)c2cccs2)cc1 [OLC22] : 0

Fill in the blank: the reported Emax at 100 µM of CCc1ccc(NC(=O)c2cccs2)cc1 [OLC20] is ____.
0

And then CCCCc1ccc(NC(=O)CSc2nnc(-c3cccnc3)n2CC)cc1 [OLC9] , what is it?
5

And then CCCCc1ccc(NC(=O)CSc2nnc(-c3ccccn3)n2CC)cc1 [OLC15] , what is it?
0

And then CCn1c(SCC(=O)Nc2ccc(C(C)C)cc2)nnc1-c1ccncc1 [OLC12] , what is it?
300

And then CCn1c(SCC(=O)Nc2ccc(N(C)C)cc2)nnc1-c1ccncc1 [OLC14] , what is it?
2

And then CCc1ccc(NC(=O)CSc2nnc(-c3ccccn3)n2CC)cc1 [OLC2] , what is it?
2

====

Target: Dmel\Orco (Drosophila melanogaster)
Sequence (Q9VNB5 1-486): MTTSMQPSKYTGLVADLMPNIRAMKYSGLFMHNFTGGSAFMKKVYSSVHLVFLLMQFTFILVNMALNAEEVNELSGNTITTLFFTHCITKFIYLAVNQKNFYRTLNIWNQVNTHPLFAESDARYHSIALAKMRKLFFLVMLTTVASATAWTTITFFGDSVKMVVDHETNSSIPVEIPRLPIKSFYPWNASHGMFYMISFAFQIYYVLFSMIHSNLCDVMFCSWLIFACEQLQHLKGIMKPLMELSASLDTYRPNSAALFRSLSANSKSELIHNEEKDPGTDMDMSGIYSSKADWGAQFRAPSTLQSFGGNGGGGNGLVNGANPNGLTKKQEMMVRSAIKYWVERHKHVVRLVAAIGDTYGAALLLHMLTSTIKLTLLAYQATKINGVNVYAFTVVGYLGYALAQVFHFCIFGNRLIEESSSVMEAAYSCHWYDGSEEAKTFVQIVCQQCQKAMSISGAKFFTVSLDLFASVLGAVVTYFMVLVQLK
Experiment: Agonist activation of homomeric Dmel\Orco in Xenopus oocytes, two-electrode voltage clamp
Conditions: concentration-response, responses normalized to 30 µM OLC3; saturation not obtained for OLC3 and VUAA1
OBSERVABLE: EC50 (µM)
Your answer is read as µM, so omit the unit and give the number.

Guide cases for EC50, answers given:
CCn1c(SCC(=O)Nc2ccc(C(C)C)cc2)nnc1-c1ccncc1 : 35
CCc1ccc(NC(=O)CSc2nnc(-c3ccncc3)n2CC)cc1 : 346

# next compound below
Quick check: EC50 on Dmel\Orco (Drosophila melanogaster), item CCc1ccc(NC(=O)CSc2nnc(-c3cccnc3)n2CC)cc1 [VUAA1, reference compound] ?
190

====

Biological target: Cqui\Orco + Cqui\Or10 (Culex quinquefasciatus, UniProt D5LMR7+Q309I4)
Test: Activation of Cqui\Orco + Cqui\Or10 in Xenopus oocytes, two-electrode voltage clamp
Format: cell-based
Conditions: in presence of 3 µM OLC15; read-out: EC50 for 3-MI activation of Cqui\Orco + Cqui\Or10 in presence of OLC15
OBSERVABLE: pEC50
// field semantics: pEC50 = negative decimal log of concentration (mol/L)

Fill in the blank: the reported pEC50 of Cc1c[nH]c2ccccc12 [3-methylindole, reference compound] is ____.
6.56

====

Molecular target: Dmel\Orco + Dmel\Or35a (Drosophila melanogaster)
Construct: expressed in transfected cells; host or cells: Xenopus laevis oocytes (cRNA injection, pGEMHE)
Assay: Inhibition of OLC12 activation of Dmel\Orco + Dmel\Or35a in Xenopus oocytes
Assay type: cell-based
Conditions: activated by 10 µM OLC12 (EC25); read-out: IC50, Dmel\Orco + Dmel\Or35a (activated by 10 µM OLC12)
Experimental: Oocytes were surgically removed from mature Xenopus laevis frogs. Follicle cells were removed by treatment with Collagenase B (Boehringer Mannhem) for 2 hours at room temperature. Capped cRNA encoding each DmOR subunit was generated using mMessage mMachine kits (Ambion). […] Odorant and Orco ligand induced currents were recorded under two-electrode voltage clamp in Xenopus laevis oocytes expressing ORs, using an automated parallel electrophysiology system (OpusExpress 6000A; Molecular Devices). […]
OBSERVABLE: pIC50
// field semantics: pIC50 = negative decimal log of concentration (mol/L)

Guide cases for pIC50, answers given:
CCCCc1ccc(NC(=O)CSc2nnc(-c3cccnc3)n2CC)cc1 : 4.40
CCn1c(SCC(=O)Nc2ccc(N(C)C)cc2)nnc1-c1ccncc1 : 4.09
CCc1ccc(NC(=O)CSc2nnc(-c3ccccn3)n2CC)cc1 : 4.62
CCc1ccc(NC(=O)c2cccs2)cc1 : 4.26
CCCCc1ccc(NC(=O)CSc2nnc(-c3ccccn3)n2CC)cc1 : 4.82

Fill in the blank: the reported pIC50 of `CCCCc1ccc(NC(=O)c2cccs2)cc1` is ____.
4.59
